target: human Claudin-6 (CLDN6) (human) (UniProt P56747); assay: FACS, 0.3 ug Ab, ARK2 cells (2nd Ab only 1351.21)
readout_name: FACS fluorescence
Give a plain numeric answer without units written out.

AB9-chim (antibody, V domains shown) VH: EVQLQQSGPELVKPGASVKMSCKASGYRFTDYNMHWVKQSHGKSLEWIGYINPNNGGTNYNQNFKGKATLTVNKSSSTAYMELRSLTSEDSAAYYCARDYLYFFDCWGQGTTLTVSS VL: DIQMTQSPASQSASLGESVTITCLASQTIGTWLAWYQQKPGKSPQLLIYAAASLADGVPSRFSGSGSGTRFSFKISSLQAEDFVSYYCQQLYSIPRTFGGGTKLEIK :: 3510

Next up:
Could you tell me which FACS fluorescence is on file for AB18-4 (antibody, V domains shown) VH: QVQLVQSGAEVKKPGASVKVSCKASGYSFTGYNMNWVRQAPGQGLEWMGNIDPYYGGSTYAQKFQGRVTMTVDTSTSTVYMELSSLRSEDTAVYYCARERSGYVFSAMDYWGQGTLVTVSS VL: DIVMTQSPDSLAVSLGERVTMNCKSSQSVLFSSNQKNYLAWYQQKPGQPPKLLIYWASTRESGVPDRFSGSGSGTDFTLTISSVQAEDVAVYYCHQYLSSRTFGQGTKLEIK ?
1130
